Biological target: Tyrosyl-tRNA synthetase, putative (Trypanosoma cruzi (strain CL Brener))
Sequence (whole entry): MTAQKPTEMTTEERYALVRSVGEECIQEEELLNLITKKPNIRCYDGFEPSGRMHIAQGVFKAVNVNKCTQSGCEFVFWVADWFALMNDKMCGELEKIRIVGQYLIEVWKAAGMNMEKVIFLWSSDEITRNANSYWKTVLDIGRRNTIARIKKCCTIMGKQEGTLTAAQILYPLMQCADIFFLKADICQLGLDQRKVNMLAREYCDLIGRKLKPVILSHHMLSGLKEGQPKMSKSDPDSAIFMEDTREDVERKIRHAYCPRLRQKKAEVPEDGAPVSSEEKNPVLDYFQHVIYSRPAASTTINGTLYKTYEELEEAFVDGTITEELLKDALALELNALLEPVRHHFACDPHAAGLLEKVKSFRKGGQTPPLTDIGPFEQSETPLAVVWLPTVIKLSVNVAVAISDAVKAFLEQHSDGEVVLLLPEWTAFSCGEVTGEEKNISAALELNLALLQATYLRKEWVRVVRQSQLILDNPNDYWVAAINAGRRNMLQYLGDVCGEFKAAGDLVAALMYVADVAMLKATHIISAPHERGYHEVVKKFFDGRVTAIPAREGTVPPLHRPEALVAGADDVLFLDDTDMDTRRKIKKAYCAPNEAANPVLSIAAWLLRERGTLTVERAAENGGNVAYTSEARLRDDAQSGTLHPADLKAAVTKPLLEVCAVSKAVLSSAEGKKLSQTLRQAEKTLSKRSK
Test: Trypanosoma cruzi tyrosyl tRNA synthetase (TcYRS) SOP
Assay type: functional
Design: scale not given: direction of the effect not stated beside the values
Conditions: 30 µM
Readout: Percent Effect (%)
Note: unit % is implicit; provide only the numeric part.

Cc1cnn(CC2CCCN2Cc2coc(-c3ccccc3)n2)c1 (stereo not given): 5
Cc1ccc(CN(C)C(=O)CN2CCCC2Cn2cccn2)o1 (stereo not given): 7.32
O=C(NCCc1ccn(-c2ccccc2)n1)N1CCC1: 25.9

Complete the entry with Percent Effect for Cc1csc(C2CCCN(C(=O)c3cnc4n[nH]c(C)c4c3)C2)n1 (stereo not given) 18.5

Complete the entry with Percent Effect for Cn1ncc(C(=O)N2CCCC(n3cccn3)C2)c1C1CC1 (stereo not given) 5.13

Complete the entry with Percent Effect for `Cc1cc2ccccc2n1CCC(=O)NCc1ncc[nH]1` 16.9
